- TEST: Growth inhibition of human p53 deficient H1299 cells after 7 days by celltiter-glo assay
- Assay type: functional
- CONDITION PARAMETERS: NCI-H1299, 168 h
OBSERVED PROPERTY: GI50 (nM)
Write the number in nM without appending the unit.

>>> endpoint_result("[O-]/[N+](=C\\[C@@H](O)[C@H](O)CO)CCCc1ccc(N(CCCl)CCCl)cc1")
1070
>>> endpoint_result("CON(CCCc1ccc(N(CCCl)CCCl)cc1)C1O[C@@H](CO)[C@H](O)[C@H](O)[C@@H]1O (some centres not stated)")
1300
>>> endpoint_result("CON(CCCc1ccc(N(CCCl)CCCl)cc1)C1C[C@H](O)[C@H](O)[C@@H](C)O1 (some centres not stated)")
1100
>>> endpoint_result("C[C@H]1O[C@@H](NNC(=O)CCCc2ccc(N(CCCl)CCCl)cc2)[C@H](O)[C@@H](O)[C@H]1O")
8700
>>> endpoint_result("CON(CCCc1ccc(N(CCCl)CCCl)cc1)C1C[C@H](O)[C@H](O)CO1 (some centres not stated)")
3700
>>> endpoint_result("CON(CCCc1ccc(N(CCCl)CCCl)cc1)C1O[C@@H](CO)[C@H](O)[C@@H](O)[C@@H]1O (some centres not stated)")
550

Problem: Endpoint output: GI50 of CON(CCCc1ccc(N(CCCl)CCCl)cc1)C1O[C@@H](CO)[C@H](O)[C@@H](O)[C@H]1O (some centres not stated) . Value?
Solution: 1200

Problem: Endpoint output: GI50 of CO[C@@H]1[C@@H](OC(N)=O)[C@@H](O)C(N(CCCc2ccc(N(CCCl)CCCl)cc2)OC)OC1(C)C (some centres not stated) . Value?
Solution: 1300

###

- TEST: Growth inhibition of human p53 deficient H1299 cells after 7 days by celltiter-glo assay
- Type: functional
- CONDITION PARAMETERS: NCI-H1299, 168 h
OBSERVED PROPERTY: GI50 (nM)
Write the number in nM without appending the unit.

As a guide, the following entries are already answered.
>>> endpoint_result("CON(CCCc1ccc(N(CCCl)CCCl)cc1)[C@@H]1OC[C@@H](O)[C@H](O)[C@H]1O")
830
>>> endpoint_result("CON(CCCc1ccc(N(CCCl)CCCl)cc1)C1O[C@H](C(=O)O)[C@H](O)[C@H](O)[C@H]1O (stereo partly specified)")
4900

Problem: Endpoint output: GI50 of `CON(CCCc1ccc(N(CCCl)CCCl)cc1)[C@@H]1O[C@H](CO)[C@@H](O)[C@H](O)[C@H]1F` . Value?
Solution: 1200

###

- TEST: Growth inhibition of human p53 deficient H1299 cells after 7 days by celltiter-glo assay
- Format: functional
- CONDITION PARAMETERS: NCI-H1299, 168 h
OBSERVED PROPERTY: GI50 (µM)
Write the number in µM without appending the unit.

>>> endpoint_result("CON(CCCc1ccc(N(CCCl)CCCl)cc1)C1O[C@H](CO)[C@H](O)[C@H](O)[C@H]1O (some centres not stated)")
1.3

# input for lookup
Problem: Endpoint output: GI50 of `CON(CCCc1ccc(N(CCCl)CCCl)cc1)[C@@H]1O[C@H](C)[C@@H](O)[C@H](O)[C@H]1O` . Value?
Solution: 1.8

###

- TEST: Growth inhibition of human p53 deficient H1299 cells after 7 days by celltiter-glo assay
- Assay type: functional
- CONDITION PARAMETERS: NCI-H1299, 168 h
Measured GI50, listed per entry for reference.
Write the number in µM without appending the unit.

As a guide, the following entries are already answered.
>>> endpoint_result("CON(CCCc1ccc(N(CCCl)CCCl)cc1)C1O[C@@H](CO)[C@H](O)[C@H](O)[C@H]1O (some centres undefined)")
1.3
>>> endpoint_result("CON(CCCc1ccc(N(CCCl)CCCl)cc1)C1C[C@@H](O)[C@@H](O)[C@@H](CO)O1 (some centres undefined)")
1.5
>>> endpoint_result("CON(CCCc1ccc(N(CCCl)CCCl)cc1)[C@H]1C[C@@H](O)[C@H](O)[C@@H](C)O1")
4.8
>>> endpoint_result("O=C(CCCc1ccc(N(CCCl)CCCl)cc1)NN[C@@H]1OC[C@@H](O)[C@H](O)[C@H]1O")
3.9

Problem: Endpoint output: GI50 of `O=C(CCCc1ccc(N(CCCl)CCCl)cc1)NN[C@@H]1O[C@H]2[C@H](OC(=O)[C@H]2O)[C@H]1O` . Value?
Solution: 12.9

Problem: Endpoint output: GI50 of `O=C(CCCc1ccc(N(CCCl)CCCl)cc1)N/N=C/[C@@H](O)[C@H](O)CO` . Value?
Solution: 2.6

Problem: Endpoint output: GI50 of O[C@@H]1[C@H](O)COC(N(O)CCCc2ccc(N(CCCl)CCCl)cc2)[C@@H]1O (some centres undefined) . Value?
Solution: 1.6

Problem: Endpoint output: GI50 of `CON(CCCc1ccc(N(CCCl)CCCl)cc1)[C@H]1O[C@@H](CO)[C@H](O)[C@@H](O)[C@@H]1O` . Value?
Solution: 1.6

Problem: Endpoint output: GI50 of CON(CCCc1ccc(N(CCCl)CCCl)cc1)C1O[C@H](CO)[C@@H](O)[C@@H](O)[C@@H]1O (some centres undefined) . Value?
Solution: 0.91

###

Measured GI50, listed per entry for reference.
- TEST: Growth inhibition of human p53 deficient H1299 cells after 7 days by celltiter-glo assay
- Assay type: functional
- CONDITION PARAMETERS: NCI-H1299, 168 h
State the result as a value with its unit after it.

As a guide, the following entries are already answered.
>>> endpoint_result("CON(CCCc1ccc(N(CCCl)CCCl)cc1)[C@@H]1O[C@H]2[C@H](OC(=O)[C@H]2O)[C@H]1O")
"400 nM"
>>> endpoint_result("CON(CCCc1ccc(N(CCCl)CCCl)cc1)[C@H]1C[C@@H](O)[C@H](O)[C@@H](CO)O1")
"580 nM"

# input for lookup
Problem: Endpoint output: GI50 of CON(CCCc1ccc(N(CCCl)CCCl)cc1)C1O[C@@H](CO)[C@@H](O)[C@@H](O)[C@@H]1O (stereo partly drawn) . Value?
Solution: 1400 nM

###

- TEST: Growth inhibition of human p53 deficient H1299 cells after 7 days by celltiter-glo assay
- Type: functional
- CONDITION PARAMETERS: NCI-H1299, 168 h
Criterion: GI50 strictly under 2000 nM. Met: class 1. Not met: class 0.

>>> group("CON(CCCc1ccc(N(CCCl)CCCl)cc1)C1O[C@H](CO)[C@@H](O)[C@H](O)[C@@H]1NC(C)=O (stereo not given in full)")
"class 0"

Problem: Confirm or reject: GI50 of `CON(CCCc1ccc(N(CCCl)CCCl)cc1)[C@H]1O[C@H](COCc2ccccc2)[C@@H](OCc2ccccc2)[C@@H]1OCc1ccccc1` lies strictly below 2000 nM
Solution: class 0

Problem: Confirm or reject: GI50 of CON(CCCc1ccc(N(CCCl)CCCl)cc1)C1OC[C@H](O)[C@H](O)[C@@H]1O (stereo not given in full) lies strictly below 2000 nM
Solution: class 0

Problem: Confirm or reject: GI50 of CON(CCCc1ccc(N(CCCl)CCCl)cc1)C1O[C@H](CO)[C@@H](O)[C@H](O)[C@@H]1O (stereo not given in full) lies strictly below 2000 nM
Solution: class 1

Problem: Confirm or reject: GI50 of `O=C1O[C@@H]2[C@@H](O)[C@H](N(O)CCCc3ccc(N(CCCl)CCCl)cc3)O[C@@H]2[C@@H]1O` lies strictly below 2000 nM
Solution: class 0

Problem: Confirm or reject: GI50 of CON(CCCc1ccc(N(CCCl)CCCl)cc1)C1OC[C@@H](O)[C@@H](O)[C@H]1O (stereo not given in full) lies strictly below 2000 nM
Solution: class 0

Problem: Confirm or reject: GI50 of CON(CCCc1ccc(N(CCCl)CCCl)cc1)C1O[C@@H](C)[C@H](O)[C@@H](O)[C@H]1O (stereo not given in full) lies strictly below 2000 nM
Solution: class 0

Problem: Confirm or reject: GI50 of `CON(CCCc1ccc(N(CCCl)CCCl)cc1)[C@@H]1O[C@H](CO)[C@@H](O)[C@H](O)[C@H]1O` lies strictly below 2000 nM
Solution: class 1

Problem: Confirm or reject: GI50 of `CO[C@@H]1[C@@H](O)[C@H](N(CCCc2ccc(N(CCCl)CCCl)cc2)OC)O[C@H](CO)[C@H]1O` lies strictly below 2000 nM
Solution: class 1

Problem: Confirm or reject: GI50 of `C=CCOC(=O)NC[C@H]1O[C@@H](N(CCCc2ccc(N(CCCl)CCCl)cc2)OC)[C@H](O)[C@@H](O)[C@@H]1O` lies strictly below 2000 nM
Solution: class 0

Problem: Confirm or reject: GI50 of `CON(CCCc1ccc(N(CCCl)CCCl)cc1)[C@@H]1O[C@H](CCl)[C@@H](O)[C@H](O)[C@H]1O` lies strictly below 2000 nM
Solution: class 1

Problem: Confirm or reject: GI50 of CON(CCCc1ccc(N(CCCl)CCCl)cc1)C1OC[C@@H](O)[C@@H]1O (stereo not given in full) lies strictly below 2000 nM
Solution: class 1

Problem: Confirm or reject: GI50 of CON(CCCc1ccc(N(CCCl)CCCl)cc1)C1O[C@H](CO)[C@@H](O)[C@@H](O)[C@H]1O (stereo not given in full) lies strictly below 2000 nM
Solution: class 1
